- measuredTarget: T1, cyno PRLR (Biacore antigen) (cyno, UniProt A0A2K5WXK1 25-234)
- T1 construct: also called cyPRLR
- T1 sequence: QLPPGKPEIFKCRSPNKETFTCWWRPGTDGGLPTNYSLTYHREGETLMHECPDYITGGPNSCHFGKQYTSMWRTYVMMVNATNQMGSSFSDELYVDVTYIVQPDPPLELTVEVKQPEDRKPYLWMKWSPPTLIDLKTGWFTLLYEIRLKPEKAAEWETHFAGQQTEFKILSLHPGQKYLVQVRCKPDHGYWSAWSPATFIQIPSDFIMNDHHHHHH
- assayRemarks: SPR Biacore
Listed binders paired with reported kon
Output spec: scalar in M⁻¹ s⁻¹, unitless text.

Which kon value is on record for Ab30 (antibody, human IgG1, kappa, V domains shown, humanized from Ab5; G1; also called Ab2 HC.1a and Ab2 LC.1a) VH: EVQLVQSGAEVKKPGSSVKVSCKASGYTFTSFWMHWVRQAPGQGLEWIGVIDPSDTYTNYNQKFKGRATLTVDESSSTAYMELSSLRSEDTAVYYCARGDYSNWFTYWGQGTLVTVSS VL: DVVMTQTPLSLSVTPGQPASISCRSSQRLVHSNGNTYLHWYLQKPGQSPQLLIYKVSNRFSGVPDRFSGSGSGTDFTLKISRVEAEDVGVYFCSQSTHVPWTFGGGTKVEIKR ?
330000

Any idea what its kon is? The binder is Ab36 (antibody, human IgG1, kappa, V domains shown, humanized from Ab7; G1; also called Ab4 HC.1 and Ab4 LC.1a) VH: EVQLVQSGAEVKKPGSSVKVSCKASGYTFTSYWIHWVRQAPGQGLEWMGEIDPSDSYTNYNQKFKGRVTITADKSTSTAYMELSSLRSEDTAVYYCARSFFTNWFAYWGQGTLVTVSS VL: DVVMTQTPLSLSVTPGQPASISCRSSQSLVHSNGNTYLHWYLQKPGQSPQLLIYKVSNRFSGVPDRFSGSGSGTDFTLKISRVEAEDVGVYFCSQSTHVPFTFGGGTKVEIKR
133000

Recorded kon for chAb5 (antibody, human IgG1, kappa, V domains shown, chimeric, murine variable and human G1/kappa constant regions) VH: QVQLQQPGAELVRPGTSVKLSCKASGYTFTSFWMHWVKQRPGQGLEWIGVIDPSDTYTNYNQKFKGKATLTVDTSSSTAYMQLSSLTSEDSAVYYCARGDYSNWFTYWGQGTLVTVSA VL: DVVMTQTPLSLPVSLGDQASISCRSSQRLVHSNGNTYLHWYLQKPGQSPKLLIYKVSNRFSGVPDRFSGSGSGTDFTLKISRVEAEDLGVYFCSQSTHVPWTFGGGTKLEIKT , please?
333000
